Cited source for all entries: paper PMC3366684

Measured melting point values are reported for all entries that follow.

Some entries whose results are on file:
INSERT INTO assay_data (molecule, readout, result_value) VALUES
  ('CCCCCCSC1=C(SCCCCCC)C(=O)c2c(O)c3c(c(O)c2C1=O)C[C@](C)(O)[C@H](O)[C@H]3O [Compound 25]', 'melting point', '112 to 113 °C'),
  ('CCCCSC1=C(SCCCC)C(=O)c2c(O)c3c(c(O)c2C1=O)C[C@](C)(O)[C@H](O)[C@H]3O [Compound 24]', 'melting point', '124 to 125 °C'),
  ('COc1ccc(CNC2=CC(=O)c3c(O)c4c(c(O)c3C2=O)C[C@](C)(O)[C@H](O)[C@H]4O)cc1 [Compound 18]', 'melting point', '149 to 150 °C');

Now take the following molecule into account.
Task: Field request: melting point | item: C[C@]1(O)Cc2c(O)c3c(c(O)c2[C@H](O)[C@H]1O)C(=O)C=C(N1CCC(c2ccccc2)CC1)C3=O [Compound 22]
Result: 221 to 222 °C

====

Assay Protocol: MTT cytotoxicity assay, MCF-10A
Type: cell-based
Particulars: MCF-10A cells, immortalized human breast epithelial cell line, 48 h exposure, mean ± SD, three independent experiments
IC50 at 48 h listing for selected compounds.
Write down the numeric answer in µM and omit the unit.

Completed entries (count: 2):
INSERT INTO assay_data (compound, result_value) VALUES
  ('CCCCSC1=C(SCCCC)C(=O)c2c(O)c3c(c(O)c2C1=O)C[C@](C)(O)[C@H](O)[C@H]3O [Compound 24]', 30.6),
  ('COC1=CC(=O)c2c(O)c3c(c(O)c2C1=O)C[C@]1(C)OC(=O)O[C@@H]1[C@H]3O [Compound 8, 2,3-O-(carbonyl) Bostrycin]', 21.7);

Let us move to another entry and its IC50 at 48 h.
Task: Give its IC50 at 48 h value. Item: COC1=CC(=O)c2c(O)c3c(c(O)c2C1=O)C[C@]1(C)OC(C)(C)O[C@@H]1[C@H]3O [Compound 5, 2,3-O-(isopropylidene) Bostrycin]
Result: 18.1
